What follows is literature data on IC50 for Tyrosine-protein phosphatase non-receptor type 1 (Homo sapiens).
// note: answer is a bare numeric in µM

Answered cases to consult:
compound	system	recorded_number
CS(=O)(=O)N[C@@H](Cc1ccc([C@@H]2CC(=O)NS2(=O)=O)cc1)c1nc2ccccc2[nH]1	Tyrosine-protein phosphatase non-receptor type 1 (Homo sapiens)	0.59
CC(=O)O[C@H]1[C@@H]2C(=O)c3c(C)cc(O)c4c3[C@@]1(COC4=O)c1c(O)c(C=O)c3cc(O)cc(C)c3c12	Tyrosine-protein phosphatase non-receptor type 1 (Homo sapiens)	3.5
COc1cc(CN(Cc2ccc(S(=O)(=O)N(C)C)cc2)S(=O)(=O)c2ccc(OCC(=O)O)cc2)ccc1C(F)(F)P(=O)(O)O	Tyrosine-protein phosphatase non-receptor type 1 (Homo sapiens)	1.1

input: Test system Tyrosine-protein phosphatase non-receptor type 1 (Homo sapiens); read-out IC50; what value for `COc1ccc2cc(C(=O)O)ccc2c1C(=O)O` ?
output: 20000

input: Test system Tyrosine-protein phosphatase non-receptor type 1 (Homo sapiens); read-out IC50; what value for COc1ccc(COc2ccc3cc(CC(NC(=O)c4ccccc4)C(=O)O)ccc3c2)cc1 (racemic) ?
output: 14.3

input: Test system Tyrosine-protein phosphatase non-receptor type 1 (Homo sapiens); read-out IC50; what value for CC1=CC[C@H]2C(C)(C)CCC[C@]2(C)[C@H]1CC(CCCCc1ccoc1)OS(=O)(=O)O (stereo in doubt; 31) ?
output: 11

input: Test system Tyrosine-protein phosphatase non-receptor type 1 (Homo sapiens); read-out IC50; what value for `O=C(O)c1ccc(CN2C(=O)/C(=C/c3ccc(O)cc3)S/C2=N\c2ccccc2)cc1` ?
output: 30.1

input: Test system Tyrosine-protein phosphatase non-receptor type 1 (Homo sapiens); read-out IC50; what value for `O=C(O)c1cc2cc(N(Cc3ccc(-c4ccccc4)cc3)S(=O)(=O)c3ccc(-c4cccc(O)c4)cc3)ccc2o1` ?
output: 6.4

input: Test system Tyrosine-protein phosphatase non-receptor type 1 (Homo sapiens); read-out IC50; what value for `O=C(Nc1ccccc1)c1ccc2cc(Br)c(C(F)(F)P(=O)(O)O)cc2n1` ?
output: 0.06

input: Test system Tyrosine-protein phosphatase non-receptor type 1 (Homo sapiens); read-out IC50; what value for `O=C(O)c1ccc(CN2C(=O)/C(=C/c3cccc4ccccc34)S/C2=N\c2ccccc2)cc1` ?
output: 14

input: Test system Tyrosine-protein phosphatase non-receptor type 1 (Homo sapiens); read-out IC50; what value for `C=C1CCC[C@H]2[C@](C)(Cc3cc(OC(C)=O)ccc3O)[C@@H](C)CC[C@]12C` ?
output: 8.6

input: Test system Tyrosine-protein phosphatase non-receptor type 1 (Homo sapiens); read-out IC50; what value for `COC(=O)CCCCCNC(=O)[C@]12CCC(C)(C)C[C@H]1C1=CC[C@@H]3[C@@]4(C)CC[C@H](O[C@H]5O[C@H](C(=O)OC)[C@@H](O)[C@H](O)[C@@H]5O)C(C)(C)[C@@H]4CC[C@@]3(C)[C@]1(C)CC2` ?
output: 12.2

input: Test system Tyrosine-protein phosphatase non-receptor type 1 (Homo sapiens); read-out IC50; what value for `CNC(=O)[C@@H]1Cc2ccc(NS(=O)(=O)O)cc2CN1C(=O)CCCc1ccccc1` ?
output: 271

input: Test system Tyrosine-protein phosphatase non-receptor type 1 (Homo sapiens); read-out IC50; what value for `CC1=C[C@H](c2c(O)ccc([C@@H]3CC(=O)c4c(O)cc(O)cc4O3)c2O)[C@@H](C(=O)c2ccc(O)cc2O)[C@H](c2ccc(O)cc2O)C1` ?
output: 16.9

input: Test system Tyrosine-protein phosphatase non-receptor type 1 (Homo sapiens); read-out IC50; what value for `CO[C@@]12c3c(C)cc(O)c4c(=O)n(CC(=O)O)cc(c34)C(=O)[C@@H]1[C@]13COC(=O)c4c(O)cc(C)c(c41)C(=O)[C@H]2[C@@H]3OC(C)=O` ?
output: 13.5

input: Test system Tyrosine-protein phosphatase non-receptor type 1 (Homo sapiens); read-out IC50; what value for `O=C(O)c1cc(/C=C/c2ccccc2)cc(Br)c1O` ?
output: 30

input: Test system Tyrosine-protein phosphatase non-receptor type 1 (Homo sapiens); read-out IC50; what value for `CC(C)=CCC/C(C)=C/Cc1c(O)ccc(C(=O)/C=C/c2ccc(O)cc2)c1O` ?
output: 5.02

input: Test system Tyrosine-protein phosphatase non-receptor type 1 (Homo sapiens); read-out IC50; what value for `CN(C)S(=O)(=O)c1ccc(CN(Cc2ccc(C(F)(F)P(=O)(O)O)c(Br)c2)S(=O)(=O)c2ccc(OCC(=O)O)cc2)cc1` ?
output: 0.028

input: Test system Tyrosine-protein phosphatase non-receptor type 1 (Homo sapiens); read-out IC50; what value for CCCCCCCCCCCCCCCC(=O)C1=C(O)C(CO)OC1=O (configuration not stated) ?
output: 14.4

input: Test system Tyrosine-protein phosphatase non-receptor type 1 (Homo sapiens); read-out IC50; what value for O=C1CC(c2ccc(CC(NS(=O)(=O)c3c(F)cccc3F)c3nc4ccccc4[nH]3)cc2)S(=O)(=O)N1 (configuration not stated) ?
output: 0.16

input: Test system Tyrosine-protein phosphatase non-receptor type 1 (Homo sapiens); read-out IC50; what value for CC1(C)CC[C@]2(CCCCC(=O)NC(Cc3ccc(Cl)cc3)C(=O)O)CC[C@]3(C)C(=CC[C@@H]4[C@@]5(C)CC[C@H](O)C(C)(C)[C@@H]5CC[C@]43C)[C@@H]2C1 (some centres not stated) ?
output: 0.61

----------
What follows is literature data on pIC50 for Tyrosine-protein phosphatase non-receptor type 1 (Homo sapiens, UniProt P18031).
Quick note: pIC50 means taking -log10 of the concentration in moles per liter.

input: Test system Tyrosine-protein phosphatase non-receptor type 1 (Homo sapiens, UniProt P18031); read-out pIC50; what value for `O=C1NC(=O)/C(=C/c2ccc(OS(=O)(=O)c3ccc(Br)cc3)cc2OCc2ccc(C(F)(F)F)cc2)S1` ?
output: 5.22

input: Test system Tyrosine-protein phosphatase non-receptor type 1 (Homo sapiens, UniProt P18031); read-out pIC50; what value for `C[C@@]12CC[C@@H]3[C@@](CC[C@H]4[C@@]3(C)CCC[C@@]4(C)C(=O)O)(CC1=O)C2` ?
output: 5.64

input: Test system Tyrosine-protein phosphatase non-receptor type 1 (Homo sapiens, UniProt P18031); read-out pIC50; what value for `CNC(=O)[C@@H]1Cc2ccc(NS(=O)(=O)O)cc2CN1C(=O)CCOc1ccccc1` ?
output: 4.08

input: Test system Tyrosine-protein phosphatase non-receptor type 1 (Homo sapiens, UniProt P18031); read-out pIC50; what value for CCOC(=O)CCCOC(=O)/C(C)=C\C(C)=C\c1csc(C(Cc2ccc(OCc3ccccc3)cc2)NC(=O)OC(C)(C)C)n1 (single isomer, unassigned) ?
output: 4.90

input: Test system Tyrosine-protein phosphatase non-receptor type 1 (Homo sapiens, UniProt P18031); read-out pIC50; what value for `O=C(Nc1ccccc1)c1ccc(/C=C/c2ccc(O)c(O)c2)cc1` ?
output: 4.57

input: Test system Tyrosine-protein phosphatase non-receptor type 1 (Homo sapiens, UniProt P18031); read-out pIC50; what value for `CC1(C)C=Cc2c(O)ccc(-c3cc4ccc(O)cc4o3)c2O1` ?
output: 4.20

input: Test system Tyrosine-protein phosphatase non-receptor type 1 (Homo sapiens, UniProt P18031); read-out pIC50; what value for `CC(C)(O)C[C@H]1C=C([C@H]2CC[C@]3(C)[C@@H]2CC[C@@H]2[C@@]4(C)CC[C@H](O)C(C)(C)[C@@H]4CC[C@]23C)C(=O)O1` ?
output: 4.64

----------
What follows is literature data on IC50 for Tyrosine-protein phosphatase non-receptor type 1 (Homo sapiens).

Answered cases to consult:
compound	result
CC1(C)CC[C@]2(CCCCC(=O)O)CC[C@]3(C)C(=CC[C@@H]4[C@@]5(C)CC[C@H](O)C(C)(C)[C@@H]5CC[C@]43C)[C@@H]2C1	1.33 µM
CCS(=O)(=O)N1CC=C(c2ccc3cc(O)c(N4CC(=O)NS4(=O)=O)c(F)c3c2)C1	< 0.001 µM
O=P(O)(O)C(F)(F)c1ccc(CN(Cc2ccc(-c3csnn3)cc2)S(=O)(=O)c2ccccc2)cc1	0.21 µM

input: Test system Tyrosine-protein phosphatase non-receptor type 1 (Homo sapiens); read-out IC50; what value for `C=C1CCC[C@H]2[C@](C)(Cc3cc(OC(C)=O)ccc3OC(C)=O)[C@@H](C)CC[C@]12C` ?
output: 14 µM

----------
Target: Tyrosine-protein phosphatase non-receptor type 1 (Homo sapiens, UniProt P18031)
Sequence (P18031 whole entry): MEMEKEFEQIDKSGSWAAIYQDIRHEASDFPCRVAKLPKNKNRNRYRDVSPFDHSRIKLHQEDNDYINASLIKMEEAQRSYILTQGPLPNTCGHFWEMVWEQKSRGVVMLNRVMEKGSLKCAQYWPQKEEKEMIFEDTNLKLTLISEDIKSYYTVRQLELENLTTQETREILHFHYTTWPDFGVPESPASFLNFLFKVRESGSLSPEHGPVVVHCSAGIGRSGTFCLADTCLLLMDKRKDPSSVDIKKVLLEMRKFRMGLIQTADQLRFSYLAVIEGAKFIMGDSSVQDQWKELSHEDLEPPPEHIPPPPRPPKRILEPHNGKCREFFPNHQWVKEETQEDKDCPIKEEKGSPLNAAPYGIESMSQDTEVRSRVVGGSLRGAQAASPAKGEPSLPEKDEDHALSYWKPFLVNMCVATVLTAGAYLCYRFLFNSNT
What follows is literature data on IC50 for Tyrosine-protein phosphatase non-receptor type 1 (Homo sapiens, UniProt P18031).
Label key: t means IC50 under 3 µM; f means IC50 of 3 µM or more.

Reference set (5 entries):
compound	system	class
O=C1NC(=O)/C(=C/c2ccc(OCc3ccccn3)cc2OCc2ccc(C(F)(F)F)cc2)S1	Tyrosine-protein phosphatase non-receptor type 1 (Homo sapiens, UniProt P18031)	f
CC(C)(C)OC(=O)NC(Cc1ccc2cc(O)ccc2c1)C(=O)O (racemic)	Tyrosine-protein phosphatase non-receptor type 1 (Homo sapiens, UniProt P18031)	f
Cc1cc(CN(Cc2ccc(-c3csnn3)cc2)S(=O)(=O)c2ccccc2)cc(C)c1OC(Cc1ccccc1)C(=O)O (stereo not given)	Tyrosine-protein phosphatase non-receptor type 1 (Homo sapiens, UniProt P18031)	f
CC1(C)CC[C@]2(C(=O)O)CC[C@]3(C)C(=CC[C@@H]4[C@@]5(C)Cc6cnoc6C(C)(C)[C@@H]5CC[C@]43C)[C@@H]2C1	Tyrosine-protein phosphatase non-receptor type 1 (Homo sapiens, UniProt P18031)	t
O=C(/C=C/c1ccc(O)c(O)c1)O[C@H]1[C@H](O)C[C@](O)(C(=O)O)C[C@H]1OC(=O)/C=C/c1ccc(O)c(O)c1	Tyrosine-protein phosphatase non-receptor type 1 (Homo sapiens, UniProt P18031)	f

input: Please let me know if `O=C(CCc1c[nH]c2ccccc12)N[C@@H](Cc1ccc(OCc2ccccc2)cc1)c1nc(C(=O)Nc2cc(Cl)ccc2C(=O)O)c(-c2ccccc2)s1` shows IC50 below 3 µM.
output: t

input: Please let me know if `Cc1cc(C)c(Oc2cc(Br)cc(Br)c2Br)c(Br)c1` shows IC50 below 3 µM.
output: f

input: Please let me know if `CC1(C)CC[C@]2(C(=O)O)CC[C@]3(C)C(=CC[C@@H]4[C@@]5(C)Cc6cnn(C(=O)c7cccnc7)c6C(C)(C)[C@@H]5CC[C@]43C)[C@@H]2C1` shows IC50 below 3 µM.
output: t

input: Please let me know if C[C@@H]1CN=C(C(Cc2ccc(C3CC(=O)NS3(=O)=O)cc2)NS(=O)(=O)c2cccc(C(F)(F)F)c2)N1 (stereo not given in full) shows IC50 below 3 µM.
output: t

input: Please let me know if `O=C1Oc2cc(O)c3c(c2[C@]12c1c(O)cc(O)cc1O[C@H]2c1ccc(O)cc1)O[C@H](c1ccc(O)cc1)[C@@H](O)C3` shows IC50 below 3 µM.
output: f

input: Please let me know if `COc1cc([C@@H]2CC(=O)Oc3cc(O)c(O[C@@H]4O[C@H](CO)[C@@H](O)[C@H](O)[C@H]4O)c(/C=C/c4ccc(O)cc4)c32)ccc1O` shows IC50 below 3 µM.
output: f

input: Please let me know if `Cc1cc(S(=O)(=O)N(Cc2ccccc2)Cc2ccc(C(F)(F)P(=O)(O)O)cc2)cc(C)c1OCC(=O)O` shows IC50 below 3 µM.
output: t

input: Please let me know if `CCOC(=O)C(=O)O[C@H]1CC[C@]2(C)[C@H]3CC=C4[C@@H]5CC(C)(C)CC[C@]5(C(=O)O)CC[C@@]4(C)[C@]3(C)CC[C@H]2C1(C)C` shows IC50 below 3 µM.
output: t

input: Please let me know if `CCOS(=O)(=O)/C=C/c1ccc(O[C@@H]2CN(C(=O)Nc3ccc(Oc4ccccc4)cc3)C[C@H]2Oc2ccc(/C=C/S(=O)(=O)OCC)cc2)cc1` shows IC50 below 3 µM.
output: t
